Reference source: patent US11014911B2

assay_system: GSK3β (H350L) (Homo sapiens (Human))
condition_parameters: read-out: GSK3β Ki
experimental_readout: pKi
Answers are plain numbers, as −log10 of the molar value.

Cc1cnc(CC(=O)Nc2cc([C@H]3CC[C@@H](OC(=O)NC(C)(C)CC(F)(F)F)C3)[nH]n2)o1 = 7.49
Cc1cc(CC(=O)Nc2cc([C@H]3CC[C@@H](OC(=O)N4[C@@H](C)COC[C@@H]4C)C3)[nH]n2)on1 = 7.91
CC[C@H](C)NC(=O)O[C@@H]1CC[C@H](c2cc(NC(=O)Cc3cncn3C)n[nH]2)C1 = 6.97

Give me pKi for each of these compounds, listed below.
1. Cc1ccc(CC(=O)Nc2cc([C@@H]3CC[C@H](OC(=O)N[C@H]4CC[C@@H](O)CC4)C3)[nH]n2)nc1
2. Cc1ncc(CC(=O)Nc2cc([C@@H]3CC[C@H](OC(=O)N[C@H]4CC[C@H](O)CC4)C3)[nH]n2)s1
3. CC(C)(C)NC(=O)O[C@@H]1CC[C@H](c2cc(NC(=O)Cc3ccon3)n[nH]2)C1
4. Cc1ncc(CC(=O)Nc2cc([C@H]3CC[C@@H](OC(=O)NC4(C)CCCC4)C3)[nH]n2)s1

8.45
8.53
7.18
8.05

* * *

assay_system: GSK3β (H350L) (Homo sapiens (Human))
condition_parameters: read-out: GSK3β Ki
Give pKi for every item shown.
Answers are plain numbers, as −log10 of the molar value.

Reference set (4 entries):
COc1ccc(CC(=O)Nc2cc([C@@H]3CC[C@H](OC(=O)N[C@H]4CC[C@@](C)(O)CC4)C3)[nH]n2)cc1 = 8.00
CCCNC(=O)O[C@H]1CC[C@@H](c2cc(NC(=O)Cc3ccccc3S(C)(=O)=O)n[nH]2)C1 = 7.47
CC1(NC(=O)O[C@@H]2CC[C@H](c3cc(NC(=O)Cc4cc(Cl)ccn4)n[nH]3)C2)CC1 = 7.50
CCCCNC(=O)O[C@H]1CC[C@@H](c2cc(NC(=O)Cc3ccno3)n[nH]2)C1 = 7.97

Give me pKi for each of these compounds, listed below.
1. Cc1cnc(CC(=O)Nc2cc([C@H]3CC[C@@H](OC(=O)N4[C@@H](C)C[C@@H]4C)C3)[nH]n2)o1
2. CC[C@H](C)NC(=O)O[C@@H]1CC[C@H](c2cc(NC(=O)Cc3ncc(OC)s3)n[nH]2)C1
3. COCc1cc(C(=O)Nc2cc([C@H]3CC[C@@H](OC(=O)NC(C)C)C3)[nH]n2)n(C)n1

7.94
7.53
6.27

* * *

assay_system: CDK2/Cyclin E1 full length (Homo sapiens (Human))
assay_explanation: CDK2/Cyclin E1 full length mobility shift assay
experimental_readout: log10 of Ki (log10 of the value in nM)
Quick note: numbers are log10 of Ki, with nM as the unit.

Give me log10 of Ki for each of these compounds, listed below.
1. C[C@H]1CCN1C(=O)O[C@@H]1CC[C@H](c2cc(NC(=O)c3cnnn3C)n[nH]2)C1
2. CC[C@H](C)NC(=O)O[C@@H]1CC[C@H](c2cc(NC(=O)Cc3ccccc3S(C)(=N)=O)n[nH]2)C1 (single isomer, unassigned) [Example 369]
3. COc1cnc(CC(=O)Nc2cc([C@H]3CC[C@@H](OC(=O)NC(C)CC(F)(F)F)C3)[nH]n2)cn1 (single isomer, unassigned) [Example 67]
4. Cc1ccc(CC(=O)Nc2cc([C@H]3CC[C@@H](OC(=O)NC(C)C(C)(F)F)C3)[nH]n2)cn1 (single isomer, unassigned) [Example 389]
5. COCc1cc(C(=O)Nc2cc([C@H]3CC[C@@H](OC(=O)NC4(C)CC4)C3)[nH]n2)n(C)n1
6. CCCNC(=O)O[C@H]1CC[C@@H](c2cc(NC(=O)c3ccnc(OC)c3)n[nH]2)C1
7. CCCNC(=O)O[C@@H]1CC[C@H](c2cc(NC(=O)Cc3cnc(C)s3)n[nH]2)C1
8. CCC(CO)CNC(=O)O[C@@H]1CC[C@H](c2cc(NC(=O)Cc3cnc(C)o3)n[nH]2)C1 (single isomer, unassigned) [Example 526]

-0.06
-0.08
0.18
-0.08
-0.30
0.13
-0.15
0.60

* * *

assay_system: GSK3β (H350L) (Homo sapiens (Human))
condition_parameters: read-out: GSK3β Ki
Give pKi for every item shown.
Give bare numbers, as −log10 of the molar value.

CCCNC(=O)O[C@@H]1CC[C@H](c2cc(NC(=O)Cc3ccnc(OC)c3)[nH]n2)C1 = 7.58
CCCNC(=O)O[C@H]1CC[C@@H](c2cc(NC(=O)Cc3ccccn3)n[nH]2)C1 = 7.74

Give me pKi for each of these molecules, listed below.
1. Cc1cnc(CC(=O)Nc2cc([C@H]3CC[C@@H](OC(=O)NC(C)(C)C)C3)[nH]n2)cn1
2. CC[C@H](C)NC(=O)O[C@@H]1CC[C@H](c2cc(NC(=O)Cc3ncc(C)o3)n[nH]2)C1
3. Cn1cc(CC(=O)Nc2cc([C@H]3CC[C@@H](OC(=O)NCCC(F)(F)F)C3)[nH]n2)cn1
4. CC[C@H](C)NC(=O)O[C@@H]1CC[C@H](c2cc(NC(=O)Cc3cc(C)no3)n[nH]2)C1
5. Cc1cc(CC(=O)Nc2cc([C@H]3CC[C@@H](OC(=O)NC(C)(C)C)C3)[nH]n2)on1
6. CC[C@H](C)NC(=O)O[C@@H]1CC[C@H](c2cc(NC(=O)c3cc(OC)nn3C)n[nH]2)C1

1. 7.52
2. 7.20
3. 7.55
4. 7.45
5. 7.57
6. 6.46

* * *

Give Ki for every item shown.
assay_system: CDK2/Cyclin E1 full length (Homo sapiens (Human), UniProt P24941)
assay_explanation: CDK2/Cyclin E1 full length mobility shift assay
Answers are plain numbers, in nM.

Reference set (2 entries):
CC[C@H](C)NC(=O)O[C@@H]1CC[C@H](c2cc(NC(=O)Cc3ccc(C)nc3)n[nH]2)C1 = 0.22
C[C@]1(O)CC[C@H](NC(=O)O[C@H]2CC[C@@H](c3cc(NC(=O)Cc4ccc(F)cc4)n[nH]3)C2)CC1 = 1.8

Give me Ki for each of these compounds, listed below.
1. Cc1cc(CC(=O)Nc2cc([C@H]3CC[C@@H](OC(=O)N4[C@@H](C)COC[C@@H]4C)C3)[nH]n2)on1
2. COc1ccc(CC(=O)Nc2cc([C@@H]3CC[C@H](OC(=O)NC4CCOCC4)C3)[nH]n2)cc1

0.47
1.43

* * *

assay_system: GSK3β (H350L) (Homo sapiens (Human), UniProt P49841)
Sequence (P49841 whole entry, stated change not applied): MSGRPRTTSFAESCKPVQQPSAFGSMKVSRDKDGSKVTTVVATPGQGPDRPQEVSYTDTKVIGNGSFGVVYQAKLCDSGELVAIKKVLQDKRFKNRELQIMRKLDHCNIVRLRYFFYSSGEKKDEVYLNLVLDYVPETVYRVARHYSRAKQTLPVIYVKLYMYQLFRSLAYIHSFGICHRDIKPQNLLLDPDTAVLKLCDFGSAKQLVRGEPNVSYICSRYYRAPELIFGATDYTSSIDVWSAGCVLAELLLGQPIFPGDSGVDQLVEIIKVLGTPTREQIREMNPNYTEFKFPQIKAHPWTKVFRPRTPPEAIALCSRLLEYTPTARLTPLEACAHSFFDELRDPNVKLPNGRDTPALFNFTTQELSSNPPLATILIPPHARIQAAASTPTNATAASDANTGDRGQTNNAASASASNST
assay_explanation: biochemical
condition_parameters: GSK3β Ki (nM)
# strict inequality: Ki < 20 nM yields Condition met, everything else yields Condition not met

CC(CC(F)(F)F)NC(=O)O[C@@H]1CC[C@H](c2cc(NC(=O)Cc3cnco3)n[nH]2)C1 (single isomer, unassigned) [Example 84] = Condition met
CC1(NC(=O)O[C@@H]2CC[C@H](c3cc(NC(=O)Cc4ccno4)n[nH]3)C2)CCOC1 (single isomer, unassigned) = Condition not met
CC(CC(F)(F)F)N(C)C(=O)O[C@@H]1CC[C@H](c2cc(NC(=O)Cc3ccno3)n[nH]2)C1 (single isomer, unassigned) = Condition met
Cc1cnc(CC(=O)Nc2cc([C@H]3CC[C@@H](OC(=O)NC(C)CC(F)(F)F)C3)[nH]n2)o1 (single isomer, unassigned) [Example 81] = Condition not met
Cc1ncc(CC(=O)Nc2cc([C@H]3CC[C@@H](OC(=O)N4C[C@@H](C#N)[C@@H]4C)C3)[nH]n2)s1 (single isomer, unassigned) = Condition met
CCC(CO)CNC(=O)O[C@@H]1CC[C@H](c2cc(NC(=O)Cc3ccc(OC)nc3)n[nH]2)C1 (single isomer, unassigned) [Example 532] = Condition met
CCC(NC(=O)O[C@@H]1CC[C@H](c2cc(NC(=O)Cc3cnc(C)s3)n[nH]2)C1)C(F)(F)F (single isomer, unassigned) [Example 403] = Condition not met
CCC(CO)CNC(=O)O[C@@H]1CC[C@H](c2cc(NC(=O)Cc3cc(C)no3)n[nH]2)C1 (single isomer, unassigned) [Example 525] = Condition met

For Cc1cnc(CC(=O)Nc2cc([C@H]3CC[C@@H](OC(=O)NC4(C)CCOC4)C3)[nH]n2)o1 (single isomer, unassigned) , is the recorded Ki below the cut-off of 20 nM?
Condition not met

For CCC1CCN1C(=O)O[C@@H]1CC[C@H](c2cc(NC(=O)Cc3cc(C)no3)n[nH]2)C1 (single isomer, unassigned) [Example 598] , is the recorded Ki below the cut-off of 20 nM?
Condition met

For Cc1ccc(C(=O)Nc2cc([C@H]3CC[C@@H](OC(=O)NC(C)CC(F)(F)F)C3)[nH]n2)cn1 (single isomer, unassigned) , is the recorded Ki below the cut-off of 20 nM?
Condition not met
